# Tested on: HCT116-MTAP wild-type (+/+)-cell strain
# experiment-description: Tumor cell proliferation inhibition assay (CellTiter-Glo), HCT116-MTAP wild-type (+/+)
# Type: cell-based
# condition-set: Homo sapiens, 120 h, HCT116-MTAP wild-type (+/+) cells, 5-day treatment, IC50 value, read-out: Tumor cell 5-day relative growth inhibition (HCT116-MTAP+/+)
readout: IC50

| compound | readout | measured-result |
| --- | --- | --- |
| Cc1[nH]nc2c(=O)n(-c3cccnc3)c3nc(C(F)(F)F)ccc3c12 [Compound B216] | IC50 | 3.59 µM |

Item: Cn1cc2c(n1)c(=O)n(-c1cccnc1C(F)(F)F)c1cc(Cl)ccc21 [Compound B68] | IC50: > 2 µM

Item: Cn1cc2c(n1)c(=O)n(-c1cccnc1C1CC1)c1cc(Cl)c(F)cc21 [Compound B340] | IC50: > 10 µM

Item: Cn1cc2c(n1)c(=O)n(-c1ccc(F)c(O)c1)c1nc(C(F)(F)F)ccc21 [Compound B228] | IC50: > 2 µM

----------
# system-under-test: MAT2A recombinant protein (Homo sapiens, UniProt P31153)
# Sequence (P31153 whole entry): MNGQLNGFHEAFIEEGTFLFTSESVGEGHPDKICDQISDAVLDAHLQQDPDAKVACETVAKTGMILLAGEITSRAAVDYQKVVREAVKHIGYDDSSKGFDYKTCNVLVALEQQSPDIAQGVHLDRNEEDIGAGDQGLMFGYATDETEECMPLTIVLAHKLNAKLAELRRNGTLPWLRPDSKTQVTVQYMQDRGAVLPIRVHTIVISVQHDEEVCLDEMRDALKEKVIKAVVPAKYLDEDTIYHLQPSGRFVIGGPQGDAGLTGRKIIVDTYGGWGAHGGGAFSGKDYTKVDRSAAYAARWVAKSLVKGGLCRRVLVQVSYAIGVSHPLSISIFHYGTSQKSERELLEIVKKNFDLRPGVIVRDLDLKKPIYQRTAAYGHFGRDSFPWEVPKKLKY
# experiment-description: MAT2A inhibitory activity (malachite green colorimetric enzyme assay)
# Type: biochemical
# condition-set: read-out: MAT2A Inhibition
readout: pIC50
Worth noting: pIC50 values are minus log10 of concentrations stated in mol/L.

See these solved cases before continuing.
| compound | measured-result |
| --- | --- |
| CCn1cc2c(n1)c(=O)n(-c1c(C)ccnc1C)c1cc(Cl)ccc21 [Compound B31] | 7.19 |
| O=c1c2nn(C3CCOCC3)cc2c2ccc(C(F)(F)F)nc2n1-c1cccnc1 [Compound B210] | 6.22 |
| CCn1nc2c(=O)n(-c3cccnc3)c3cc(Cl)ccc3c2c1C(F)F [Compound B25] | 7.03 |
| CCn1cc2c(n1)c(=O)n(-c1cnccc1C)c1cc(Cl)ccc21 [Compound B51] | 7.39 |
| Cn1cc2c(n1)c(=O)n(-c1ccnn1C)c1cc(Cl)ccc21 [Compound B58] | 7.26 |

Item: Cc1[nH]nc2c(=O)n(-c3cccnc3)c3nc(C(F)(F)F)ccc3c12 [Compound B216] | pIC50: 7.60

Item: Cc1c2c(nn1C)c(=O)n(-c1cccnc1)c1nc(C(F)(F)F)ccc21 [Compound B198] | pIC50: 7.77

Item: Cc1ncccc1-n1c(=O)c2n[nH]cc2c2ccc(C(F)(F)F)nc21 [Compound B96] | pIC50: 7.53

Item: N#Cc1cc2c3c[nH]nc3c(=O)n(-c3cccc4[nH]ncc34)c2cc1Cl [Compound B394] | pIC50: 7.72

Item: Cc1ncccc1-n1c(=O)c2nn(CC3CC3)cc2c2ccc(C(F)(F)F)nc21 [Compound B191] | pIC50: 7.39

Item: Cn1cc2c(n1)c(=O)n(-c1ccc(OC(F)F)cc1)c1cc(Cl)ccc21 [Compound B186] | pIC50: 6.72

Item: COc1cccc(-n2c(=O)c3nn(C)cc3c3ccc(C(F)(F)F)nc32)c1 [Compound B184] | pIC50: 6.76

Item: Cn1ccc(Cn2cc3c(n2)c(=O)n(-c2cccnc2)c2cc(Cl)ccc32)n1 [Compound B48] | pIC50: 7.53

Item: CCn1cc2c(n1)c(=O)n(-c1cccnc1C(F)(F)F)c1cc(Cl)ccc21 [Compound B32] | pIC50: 7.36

Item: CCn1nc2c(=O)n(-c3cccnc3)c3cc(Cl)ccc3c2c1F [Compound B33] | pIC50: 7.59

Item: O=c1c2n[nH]cc2c2cc(F)c(Cl)cc2n1-c1cccc2[nH]ncc12 [Compound B263] | pIC50: 8.03

Item: O=c1c2nn(C(F)F)cc2c2cc(F)c(C3CC3)nc2n1-c1cccnc1C1CC1 [Compound B361] | pIC50: 7.82

Item: Cn1cc2c(n1)c(=O)n(-c1cccc(O)c1)c1cc(Cl)ccc21 [Compound B152] | pIC50: 7.14

----------
# system-under-test: MAT2A recombinant protein (Homo sapiens)
# experiment-description: MAT2A inhibitory activity (malachite green colorimetric enzyme assay)
# Assay type: biochemical
# condition-set: IC50 score class; read-out: MAT2A Inhibition (score)
# Method: MAT2A catalyzes the reaction of L-methionine and ATP to generate S-adenosylmethionine (SAM), inorganic phosphonic acid, and inorganic diphosphonic acid. […] The test compounds were formulated using DMSO and diluted 1:3 diluted through 10 concentration points to give a final starting concentration in the reaction system of 1000 nM. […] The absorbance at 630 nm was measured. […]
pIC50: −log10 of the molar value.
readout: pIC50

| compound | system-under-test | pIC50 |
| --- | --- | --- |
| O=c1c2nn(C3CC3)cc2c2ccc(C(F)(F)F)nc2n1-c1cccnc1 | MAT2A recombinant protein (Homo sapiens) | > 7.00 |

Item: `Cc1nnc2c(=O)n(-c3cccnc3)c3cc(Cl)ccc3n12` | pIC50: 6.00 to 7.00

Item: `Cn1cc2c(n1)c(=O)n(-c1ccc3[nH]cnc3c1)c1cc(Cl)ccc21` | pIC50: > 7.00

Item: `CCn1cc2c(n1)c(=O)n(-c1cccnc1C)c1cc(Cl)ccc21` | pIC50: > 7.00

Item: `O=c1c2n[nH]cc2c2ccc(C(F)(F)F)nc2n1-c1cccc2[nH]ncc12` | pIC50: > 7.00

Item: `Cn1cc2c(n1)c(=O)n(-c1cccc3[nH]ncc13)c1nc(C(F)(F)F)c(C#N)cc21` | pIC50: > 7.00

Item: `Cn1cc2c(n1)c(=O)n(-c1cccc3[nH]ncc13)c1cc(Cl)c(C#N)cc21` | pIC50: > 7.00

Item: `Cn1cc2c(n1)c(=O)n(-c1cccc(C#N)c1)c1nc(C(F)(F)F)ccc21` | pIC50: > 7.00

----------
# System: SDMA in human colon cancer cell line HCT116
# experiment-description: Cell symmetric dimethylarginine (SDMA) test, In-cell Western, HCT116 (MTAP wild-type)
# Assay type: cell-based
# condition-set: Homo sapiens, HCT-116, 96 h, IC50 score class, read-out: Cell 96 h SDMA Inhibition (HCT116-MTAP+/+) (score)
pIC50: −log10 of the molar value.
readout: pIC50

Item: CNC(=O)CC1N=c2c(c3ccc(Cl)cc3n(-c3cccnc3)c2=O)=N1 (centres unmarked) | pIC50: 5.52 to 6.00

----------
Here, each record is paired with measured AUC data.
# experiment-description: Pharmacokinetic test in mice (IV and PO)
# Type: in vivo
# condition-set: mouse, plasma; BALB/c mice, IV 2 mg/kg
Numbers only here, please. The scale is µM·h.

| compound | AUC (µM·h) |
| --- | --- |
| Cn1cc2c(n1)c(=O)n(-c1cccc3[nH]ncc13)c1cc(Cl)ccc21 | 119 |
| O=c1c2nn(C(F)F)cc2c2cc(F)c(C3CC3)nc2n1-c1cccnc1C1CC1 | 31.5 |
| Cc1c2c(nn1C)c(=O)n(-c1cccnc1)c1nc(C(F)(F)F)ccc21 | 8.7 |

Item: `CCn1cc2c(n1)c(=O)n(-c1cccnc1)c1nc(C(F)(F)F)ccc21` | AUC: 1.86

Item: `Cn1cc2c(n1)c(=O)n(-c1cccc3[nH]ncc13)c1cc(Cl)c(F)cc21` | AUC: 49.8

Item: `Cn1cc2c(n1)c(=O)n(-c1cccc3[nH]ncc13)c1nc(C(F)(F)F)ccc21` | AUC: 34.3

Item: `Cn1cc2c(n1)c(=O)n(-c1cccc3[nH]ncc13)c1cc(Cl)c(C#N)cc21` | AUC: 21.4

Item: `Cn1cc2c(n1)c(=O)n(-c1cccnc1)c1cc(Cl)ccc21` | AUC: 4.5

Item: `Cn1cc2c(n1)c(=O)n(-c1cccnc1C1CC1)c1cc(Cl)c(F)cc21` | AUC: 46

Item: `[2H]C([2H])([2H])n1cc2c(n1)c(=O)n(-c1cccc3[nH]ncc13)c1nc(C(F)(F)F)ccc21` | AUC: 37.8

Item: `Cc1c2c(nn1C(F)F)c(=O)n(-c1cccc3[nH]ncc13)c1nc(C(F)(F)F)ccc21` | AUC: 245

----------
Here, each record is paired with measured PXR activation fold (10 μM) data.
# system-under-test: PXR (Homo sapiens)
# Construct: host or cells: DPX2 cells
# Sequence (O75469 1-434): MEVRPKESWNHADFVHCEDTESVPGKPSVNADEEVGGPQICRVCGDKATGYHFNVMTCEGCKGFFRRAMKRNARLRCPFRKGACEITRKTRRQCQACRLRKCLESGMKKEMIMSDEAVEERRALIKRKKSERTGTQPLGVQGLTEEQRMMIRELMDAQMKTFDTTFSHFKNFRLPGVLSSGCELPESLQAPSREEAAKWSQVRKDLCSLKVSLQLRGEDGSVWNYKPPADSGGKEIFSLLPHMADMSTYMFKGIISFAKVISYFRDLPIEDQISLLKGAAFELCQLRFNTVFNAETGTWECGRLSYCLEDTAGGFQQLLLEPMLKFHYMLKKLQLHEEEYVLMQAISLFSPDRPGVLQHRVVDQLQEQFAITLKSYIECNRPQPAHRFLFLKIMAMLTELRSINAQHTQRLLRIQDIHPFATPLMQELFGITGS
# experiment-description: PXR activation test in stably transfected DPX2 cells
# Format: cell-based
# condition-set: DPX2 cells, 10 μM, 48 h
Numbers only here, please. The scale is fold.

See these solved cases before continuing.
| molecule | PXR activation fold (10 μM) / fold |
| --- | --- |
| Cn1cc2c(n1)c(=O)n(-c1cccc3[nH]ncc13)c1cc(Cl)ccc21 [Compound B60] | 7.06 |
| O=c1c2n[nH]cc2c2ccc(C(F)(F)F)nc2n1-c1cccnc1 [Compound B178] | 7.47 |
| Cn1cc2c(n1)c(=O)n(-c1cccc3[nH]ncc13)c1nc(C(F)(F)F)ccc21 [Compound B181] | 3.63 |

Below: the item to evaluate.
Item: Cn1cc2c(n1)c(=O)n(-c1cccc3[nH]ncc13)c1cc(Cl)c(F)cc21 [Compound B257] | PXR activation fold (10 μM): 3.37
